assay: NCI Yeast Anticancer Drug Screen. Data for the mlh1 rad18 strain (AID 175); details: S. cerevisiae mlh1 rad18 strain growth inhibition; at 50.0 µM; active compounds read high
About 79,000 compounds went through this panel and 15% of them were active in at least one assay; those are over-represented in the sample as a whole.
Below, each of the molecules is paired with its reported growth inhibition value.
Report only the number, with the unit % understood.

Record excerpt, results attached:
[
  {
    "Molecule": "NNc1nc(N2CCOCC2)c2[nH]cnc2n1",
    "Unit string": "%",
    "growth inhibition": 4.75
  },
  {
    "Molecule": "CCOC(=O)C1SC(=Nc2ccc(C)c(C)c2)N=C1C (stereo not drawn)",
    "Unit string": "%",
    "growth inhibition": 7.15
  },
  {
    "Molecule": "CCN(CC)S(=O)(=O)Nc1c(C)n(C)n(-c2ccccc2)c1=O",
    "Unit string": "%",
    "growth inhibition": 14
  },
  {
    "Molecule": "O=C(N[C@@H](CCl)[C@H](Cl)c1ccc([N+](=O)[O-])cc1)c1ccc([N+](=O)[O-])o1",
    "Unit string": "%",
    "growth inhibition": 92.8
  },
  {
    "Molecule": "Cc1csc(NC(=O)C2C3CCC(O3)C2C(=O)O)n1 (stereo not drawn)",
    "Unit string": "%",
    "growth inhibition": -12.6
  },
  {
    "Molecule": "CC(=O)NC1C(OCc2ccccc2)OC(CO)C(O)C1OCC(=O)N1CCCC1C(=O)NC(CCC(=O)NCCCCCNc1c2ccccc2nc2cccc([N+](=O)[O-])c12)C(N)=O (stereo not drawn)",
    "Unit string": "%",
    "growth inhibition": 72.5
  },
  {
    "Molecule": "C/C(=N\\NC(=O)c1ccncc1)c1cccc(F)c1",
    "Unit string": "%",
    "growth inhibition": -38
  },
  {
    "Molecule": "O=C1C(SCCO)=C(SCCO)C(=O)c2[nH]cnc21",
    "Unit string": "%",
    "growth inhibition": 4.15
  },
  {
    "Molecule": "CC12CCC(=O)C=C1CCC1C2CCC2(C)C(C(=O)Cn3c(=O)[nH]cc(F)c3=O)CCC12 (stereo not drawn)",
    "Unit string": "%",
    "growth inhibition": 11
  },
  {
    "Molecule": "CC1(C)CC2(C)NCCN2C(=S)N1 (stereo not drawn)",
    "Unit string": "%",
    "growth inhibition": -7.8
  }
]

// growth inhibition lookup, key: c1ccc(-c2c(-c3ccc4c(c3)OCO4)c(-c3ccc4c(c3)OCO4)c(-c3ccccc3)c3ccccc23)cc1
23.4

// growth inhibition lookup, key: C#CCC(O)c1ccc(OC)c(OCc2ccccc2)c1 (stereo not drawn)
-1.4

// growth inhibition lookup, key: Cc1cccc(N=Nc2c(-c3ccccc3)nn(C(N)=S)c2C)c1C
-7.75

// growth inhibition lookup, key: CC(=O)NCCc1nc(-c2nc(C(=O)NCCC(C)C)cs2)cs1
5.9

// growth inhibition lookup, key: Cc1cc(=O)c2cc(Cc3ccc(N)cc3)ccc2[nH]1
0.65

// growth inhibition lookup, key: CCCCCCCCCCCCCC(=O)OCCCC
-7.35

// growth inhibition lookup, key: Cc1ccc(CCn2cnc3c(N(CCO)CCO)ncnc32)cc1
-9.6

// growth inhibition lookup, key: C#CN1C(=O)c2c(c(-c3ccccc3)c(-c3ccc(Oc4ccc(-c5c(-c6ccccc6)c6c(c(-c7ccccc7)c5-c5ccccc5)C(=O)N(C#C)C6=O)cc4)cc3)c(-c3ccccc3)c2-c2ccccc2)C1=O
15.2

// growth inhibition lookup, key: CC12CCC(/C(=N/O)C1=O)C2(C)C (stereo not drawn)
4.25

// growth inhibition lookup, key: COc1ccc(Cc2cc(N=NC(N)=O)c(C)cc2O)cc1
4.55

// growth inhibition lookup, key: S=c1cc(S)nc[nH]1
9.45

// growth inhibition lookup, key: C[C@H]1C(=O)OCN1C(=O)OCc1ccccc1
-0.5

// growth inhibition lookup, key: NC1=NOC(=O)C1c1ccccc1 (stereo not drawn)
-19.8

Data origin, for the record: PubChem BioAssay (NCI)
